- Test system: SF-295 CNS
- TEST_SUMMARY: NCI-60 one-dose screen, 48 h
- DETAILS: 10 µM unless noted
The panel holds about 83,000 compounds, 20% with a hit somewhere; the sample as a whole holds those more often. The source made the active and inactive calls. Rule for the calls: active = growth percent below 10; inactive = the rest.
Your response should consist of one outcome taken from active, inactive

Lookup: Tell me the assay call for CSc1ccccc1NC(=O)c1ccc2nn(/C(C#N)=C/c3ccccn3)nc2c1 please.
Found: active

Lookup: Moving on to COc1ccc(-c2ccc(SCC(=O)Nc3ccc(S(N)(=O)=O)cc3Br)nn2)cc1
Found: inactive

Lookup: Moving on to O=C(/C=C/Nc1ccc2oc(=O)ccc2c1)c1cc2cc(Br)ccc2oc1=O
Found: inactive

Lookup: Moving on to Cc1cnc(C(=O)NNc2nc3cc(F)ccc3n3c(C(=O)N4CC5CC(C4)N5)ccc23)cn1
Found: inactive

Lookup: Moving on to CN1CCc2c(sc3ncnc(N/N=C/c4ccc(Cl)cc4Cl)c23)C1
Found: inactive

Lookup: Moving on to COc1cccc(-c2nc(Nc3ccc(S(N)(=O)=O)cc3)c3ccccc3n2)c1
Found: active

Lookup: Moving on to COc1ccc(N2N=C(c3ccc4c(c3)OCO4)CC2c2cccc(NC(=O)CCNS(=O)(=O)c3ccc(Cl)cc3)c2)cc1 (stereo not drawn)
Found: inactive

Lookup: Moving on to OCC1(CCCc2ccccc2)CCCN(c2nccc3ccccc23)C1 (stereo not drawn)
Found: inactive

---

- Tested on: HCT-116 colon
- TEST_SUMMARY: NCI-60 one-dose screen, 48 h (100 = growth as untreated, 0 = no growth, -100 = all killed)
- DETAILS: 10 µM unless noted
About 83,000 compounds went through this panel and 20% of them were active in at least one assay; those are over-represented in the sample as a whole.
MEASURED_QUANTITY: growth (%)
Unit % implied. Number only.

Lookup: Fill in: growth of NC(=S)Nc1cccc(NC(N)=S)c1 is ___
Found: 107

Lookup: Moving on to CC(=O)Nc1ccc(C(=O)NC(=S)Nc2ccc(S(N)(=O)=O)cc2)cc1
Found: 99.4

Lookup: Moving on to COc1cccc(-c2nc(Nc3ccc(S(N)(=O)=O)cc3)c3ccccc3n2)c1
Found: 32.2

Lookup: Moving on to C=C1CCC2C3(C)COC(c4ccccc4)OC3CCC2(C)C1CC(NCc1ccccc1)C1=CCOC1=O (centres undefined)
Found: 69

Lookup: Moving on to O=C(O)c1ccc(-c2ccc(/C=N/NC(=O)c3[nH]c4ccc(Br)cc4c3-c3ccccc3)s2)cc1
Found: 11.1

Lookup: Moving on to Cn1cc(-c2nc(N)nnc2-c2c[nH]c3ccc(F)cc23)c2cc(Br)cnc21
Found: -14.8

Lookup: Moving on to COc1cc2c(c(OC)c1OC)C(=O)CC(c1cccc(NC(=O)c3cc([N+](=O)[O-])ccc3Cl)c1)O2 (centres undefined)
Found: -66.1

Lookup: Moving on to C[C@H](Nc1nc(NCCc2ccccc2)nc2ccccc12)c1ccccc1
Found: -83.7

Lookup: Moving on to CCC(C)(C)c1ccc(OCCCCCCN2CCN(c3ccncc3)CC2)cc1
Found: -69.3

---

Task for the reader: assign each of the following compounds its reported growth.
- Test system: MOLT-4 leukemia
- TEST_SUMMARY: NCI-60 one-dose screen, 48 h (100 = growth as untreated, 0 = no growth, -100 = all killed)
- DETAILS: 10 µM unless noted
About 83,000 compounds went through this panel and 20% of them were active in at least one assay; those are over-represented in the sample as a whole.
Unit % implied. Number only.

Lookup: Fill in: growth of Cc1cccc(-c2nc(Nc3ccc(C)c(S(N)(=O)=O)c3)c3ccccc3n2)c1 is ___
Found: 16.8

Lookup: Moving on to CN(C)c1ccnc(CNCCSC2(c3ccc(C(F)(F)F)cc3)c3ccccc3C=Cc3ccccc32)c1
Found: 16.1

Lookup: Moving on to N/C(=N\c1nc2ccccc2s1)NC(=O)Nc1ccc(Cl)cc1Cl
Found: 6.86

Lookup: Moving on to O=C(CCN1C(=O)/C(=C/c2ccc(F)cc2)SC1=S)N1CCOCC1
Found: 84

Lookup: Moving on to N/C(=N\c1nc2ccccc2s1)NC(=O)Nc1ccccc1Br
Found: 21.5

Lookup: Moving on to O=[N+]([O-])c1ccc(/C=C/c2nc3ccccc3n3c(=S)[nH]nc23)cc1
Found: 75.5

Lookup: Moving on to COc1cc(-c2nc3cc(Cl)c(Cl)cc3[nH]2)ccc1OCc1nnc(-c2cccs2)o1
Found: 62.8

Lookup: Moving on to CCOP(=O)(OCCCl)c1nc(-c2ccc(C)cc2)oc1NCc1ccccc1 (centres undefined)
Found: 43.6

Lookup: Moving on to CSc1ccc(C(=O)Nc2ccc3nnn(/C(C#N)=C/c4ccccn4)c3c2)cc1
Found: 12.1

Lookup: Moving on to Cc1nc(Nc2ccccn2)sc1C(=O)CC(SCC(=O)Nc1ccc(Cl)cc1)c1ccccc1F (centres undefined)
Found: 23.7

Lookup: Moving on to CC1=C(C(=O)c2ccccc2)C(c2cccc3ccccc23)n2c(nc3ccccc32)N1 (centres undefined)
Found: 52.3

Lookup: Moving on to O=C(Cn1nc(-c2ccccc2)ccc1=O)N/N=C/c1ccc(N2CCOCC2)cc1
Found: 98.1

Lookup: Moving on to Cn1cc(-c2nc(N)nnc2-c2c[nH]c3ccc(Br)cc23)c2cc(Br)cnc21
Found: -2.69

Lookup: Moving on to C=Cn1cc(C(=O)O)c(=O)c2cc(F)c(N3CCN(c4nccc(-c5nccs5)n4)CC3)cc21
Found: 1.77

Lookup: Moving on to O=C1Nc2cc(Cl)ccc2/C1=C/c1cccc(OCc2ccccn2)c1
Found: 4.01

Lookup: Moving on to CC1=C(C(=O)c2ccccc2)C(c2ccc(-n3cncn3)cc2)n2c(nc3ccccc32)N1 (centres undefined)
Found: 66.9

Lookup: Moving on to O=C(c1ccccc1)c1ccc2nc(-c3cccc(Cl)c3)[nH]c2c1
Found: 103

Lookup: Moving on to C(=C\c1cc(/C=C/c2ccccc2)c2ccccc2n1)/c1ccccc1
Found: 32.1

Lookup: Moving on to O=C(NN1C(=O)/C(=C/C=C/c2ccc([N+](=O)[O-])o2)SC1=S)c1ccccc1O
Found: 6.95

Lookup: Moving on to O=C(c1ccc(OCCN2CCOCC2)cc1)C1[C@H](c2ccc(Cl)cc2)[C@@H](c2ccccc2)NC12C(=O)Nc1ccc(Br)cc12 (some centres undefined)
Found: -33.9

Lookup: Moving on to O=C(c1ccc(Cl)cc1)c1ccc(OCCCN2CCN(c3ccncc3)CC2)cc1
Found: 15.7

Lookup: Moving on to CN1C(=O)/C(=C/c2ccc(C(=O)Nc3ncc(Cc4ccc(Cl)cc4Cl)s3)cc2)SC1=S
Found: 31.1

Lookup: Moving on to Brc1ccc(-c2n(Cc3ccc4ccccc4c3)c(-c3ccccc3)c(-c3ccccc3)[n+]2Cc2ccc3ccccc3c2)cc1
Found: -5.89

Lookup: Moving on to CC1CCCCN1CCCNC(=O)N/C(N)=N/c1nc2ccccc2s1 (centres undefined)
Found: 16.4

Lookup: Moving on to CC1(C)CC[C@]2(C(=O)O)CC[C@]3(C)C(=CCC4[C@@]5(C)C[C@@H](O)[C@@H]6OC(c7ccco7)OC[C@@]6(C)C5CC[C@]43C)C2C1 (some centres undefined)
Found: 21

Lookup: Moving on to C=C1CCC2C3(C)COC(c4cccc(F)c4)OC3CCC2(C)C1C/C=C1/C(=O)OCC1O (centres undefined)
Found: 7.01

Lookup: Moving on to Cc1nc(Nc2ncc(C(=O)Nc3c(C)cccc3Cl)s2)cc(N2CCN(CCCNC(=O)COc3ccc(C4CCC(=O)NC4=O)cc3)CC2)n1 (centres undefined)
Found: 48.9

Lookup: Moving on to O=c1onc(-c2cc3ccccc3nc2Cl)n1-c1cccc2ccccc12
Found: 24.5

Lookup: Moving on to COc1ccc(/C=C/c2n(Cc3ccc4ccccc4c3)c3ccccc3[n+]2Cc2ccc3ccccc3c2)cc1
Found: -2.71

Lookup: Moving on to COc1ccc(/C=N/NC(=O)Cn2nc(Cc3ccc(OC)cc3)c3onc(C)c3c2=O)cc1
Found: 78.7

Lookup: Moving on to CC1=C(C(=O)OCc2ccccc2)C(c2c(O)cc(O)cc2O)n2c(nc3ccccc32)N1 (centres undefined)
Found: 60.6

Lookup: Moving on to COc1cc2c(c(OC)c1OC)C(=O)CC(c1cccc(NC(=O)c3cc(NC(=O)[C@H](CO)NC(=O)OC(C)(C)C)ccc3Cl)c1)O2 (some centres undefined)
Found: 12.5

Lookup: Moving on to Cc1ccc([C@H]2C(C(=O)c3ccc(Cl)cc3)C3(N[C@@H]2c2ccccc2)C(=O)Nc2ccccc23)cc1 (some centres undefined)
Found: -26.6

Lookup: Moving on to O=c1[nH]n(C(=S)N/N=C/c2ccccc2Cl)c(=O)c2ccccc12
Found: -1.75
